# assaySummary: Particle size of nucleic acid lipid particles (FVII-siRNA)
# Assay type: physicochemical
experimentalReadout: Particle size (nm)
Give the quantity in nm, number only.

# annotated cases, reported Particle size (nm) shown
CCCCCCCC(CCCCCCC)COC(=O)CCCCCCCCC(CCCCCC)OC(=O)OCCN(CCN(CC)CC)C(C)C (centres unmarked) [Example 133] ... 75.8
CCCCCCC(CCCC)COC(=O)CCCCCCCCC(CCCCCCCCC(=O)OCC(CCCC)CCCCCC)OC(=O)OCCN(CC)CCN(CC)CC (centres unmarked) [Example 72] ... 72.4
CCCCCCCC(=O)OCCN(CCOC(=O)OC(CCCCCC)CCCCCCCCC(=O)OCCC(CCCCC)CCCCC)CCN(CC)CC (centres unmarked) [Example 125] ... 77.8
CCCCCCCCCC(=O)OCCN(CCOC(=O)OC(CCCCCC)CCCCCCCCC(=O)OCC(CCCCCC)CCCCCCCC)CCN(CC)CC (centres unmarked) [Example 98] ... 68.3
CCCCCCCCCC(=O)OCCCCCCC(CCCCCCOC(=O)CC(CCCCCCC)CCCCCCC)OC(=O)OCCN(CC)CCN(CC)CC (centres unmarked) [Example 78] ... 74.2
CCCCCCCCCCCCC(CCCCCCCCC(=O)OCC(CCCC)CCCCCC)OC(=O)OCCN(CCN(CC)CC)C(C)C (centres unmarked) [Example 61] ... 67.7
CCCCCCCCC(CCCCCC)COC(=O)CCCCCCCC(CCCCCC)OC(=O)OCCN(CCN(CC)CC)C(C)C (centres unmarked) [Example 117] ... 85.4
CCCCC/C=C\C/C=C\CCCCCCCCC(CCCCCCCC/C=C\C/C=C\CCCCC)OC(=O)OCCN(CCCCCC)CCN(C)C [Example 37] ... 74.5

Please report the recorded Particle size (nm) for CCCCC/C=C\C/C=C\CCCCCCCCC(CCCCCCCC/C=C\C/C=C\CCCCC)OC(=O)OCCN(CC)CCN(CC)CC [Example 30] . 73.6

Please report the recorded Particle size (nm) for CCCCCCCC/C=C\CCCCCCCC(=O)OCCN(CCOC(=O)OC(CCCCCC)CCCCCCCCC(=O)OCC(CCCCCC)CCCCCCCC)CCN(CC)CC (centres unmarked) [Example 118] . 80.5

Please report the recorded Particle size (nm) for CCCCCCCC(=O)OCCN(CCOC(=O)OC(CCCCCC)CCCC(=O)OCC(CCCC)CCCCCC)CCN(CC)CC (centres unmarked) [Example 108] . 78.8

Please report the recorded Particle size (nm) for CCCCCCCCCCC(CCCCCCCCCCC(=O)OCC(CCCC)CCCCCC)OC(=O)OCCN(CC)CCN(CC)CC (centres unmarked) [Example 66] . 85.4

Please report the recorded Particle size (nm) for CCCCCCCCCCC(CCCCCCCCC(=O)OCC(CCCC)CCCCCC)OC(=O)OCCN(CC)CCN(CC)CC (centres unmarked) [Example 68] . 84.5

Please report the recorded Particle size (nm) for CCCCC/C=C\C/C=C\CCCCCCCCC(CCCCCCCC/C=C\C/C=C\CCCCC)OC(=O)OCCN(CCC)CCN(C)C(C)C [Example 64] . 65.7
